target-or-system: human NPR1 (Homo sapiens, UniProt P16066)
Construct: host or cells: CHO-K1
Sequence (P16066 33-1061): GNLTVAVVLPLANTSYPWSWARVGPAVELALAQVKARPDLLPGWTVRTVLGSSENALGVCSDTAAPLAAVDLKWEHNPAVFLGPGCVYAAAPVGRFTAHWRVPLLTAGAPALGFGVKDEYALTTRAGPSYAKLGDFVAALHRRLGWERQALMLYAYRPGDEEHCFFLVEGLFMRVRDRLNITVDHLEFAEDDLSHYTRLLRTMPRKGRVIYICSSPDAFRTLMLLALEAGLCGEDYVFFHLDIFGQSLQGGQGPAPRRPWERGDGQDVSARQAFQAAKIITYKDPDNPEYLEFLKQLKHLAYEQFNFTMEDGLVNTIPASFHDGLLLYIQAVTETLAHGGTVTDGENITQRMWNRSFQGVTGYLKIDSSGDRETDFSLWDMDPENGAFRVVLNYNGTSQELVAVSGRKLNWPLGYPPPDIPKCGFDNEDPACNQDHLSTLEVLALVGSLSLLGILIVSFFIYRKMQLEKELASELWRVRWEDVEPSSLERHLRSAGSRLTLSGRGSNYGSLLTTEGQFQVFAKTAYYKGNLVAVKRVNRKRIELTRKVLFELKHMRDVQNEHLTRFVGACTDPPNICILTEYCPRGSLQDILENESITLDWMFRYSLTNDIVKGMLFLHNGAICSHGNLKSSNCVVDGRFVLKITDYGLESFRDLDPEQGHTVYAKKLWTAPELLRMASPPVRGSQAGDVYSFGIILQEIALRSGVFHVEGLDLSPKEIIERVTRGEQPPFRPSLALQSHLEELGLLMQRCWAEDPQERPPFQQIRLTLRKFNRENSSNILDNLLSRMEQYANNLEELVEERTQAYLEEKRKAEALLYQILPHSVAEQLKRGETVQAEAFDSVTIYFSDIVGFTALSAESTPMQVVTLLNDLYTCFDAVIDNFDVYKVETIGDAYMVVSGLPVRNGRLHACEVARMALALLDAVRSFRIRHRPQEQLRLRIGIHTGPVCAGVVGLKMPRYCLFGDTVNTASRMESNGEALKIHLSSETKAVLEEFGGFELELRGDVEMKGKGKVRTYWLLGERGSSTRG
assay-method-text: Cellular cGMP production assay, human NPR1 expressing CHO-K1 cells (CisBio HTRF)
Assay type: cell-based
study-conditions: maximum cGMP production as percentage of the maximum cGMP produced with ANP

compound: CC[C@H]([C@H]1CC[C@H](C(=O)O)CC1)N(C)c1nc2c(c(N[C@@H](CN3CC4CCC3C4)c3cnn(C)c3)n1)C[C@](C)(c1ccccc1)CC2 (stereo partly shown) [Compound 68]
Human NPR1 Amax (% of ANP): 96.721 % of ANP

compound: CC[C@@H](Nc1nc2c(c(N[C@@H](CN3CCC[C@H](C)C3)c3cnn(C)c3)n1)C[C@](C)(c1ccc(F)cc1)CC2)[C@H]1CC[C@H](C(=O)O)CC1 [Compound 5]
Human NPR1 Amax (% of ANP): 85.741 % of ANP

compound: CC(Nc1nc2c(c(N[C@@H](CN3CCCC3)c3ccccc3)n1)CC(c1ccccc1)CC2)[C@H]1CC[C@H](C(=O)O)CC1 (stereo partly shown) [Compound 158]
Human NPR1 Amax (% of ANP): 109.837 % of ANP

compound: CC[C@H]([C@H]1CC[C@H](C(=O)O)CC1)N(C)c1nc2c(c(N[C@@H](CN3CCCCC3)c3ccc(=O)n(CC)c3)n1)C[C@H](c1ccccc1)CC2 [Compound 148]
Human NPR1 Amax (% of ANP): 93.518 % of ANP

Measured values drawn from patent US12129246B1 for this set.
